# STUDY_SYSTEM: Liver carboxylesterase 1 (Homo sapiens)
# ASSAY_NOTES: Reversible inhibition of human CES1 assessed as hydrolysis of 4NPA to 4NP
ATTRIBUTE_MEASURED: Ki (µM)

Known Ki results, listed for orientation:
molecule=COc1ccc2cc([C@@H](C)C(=O)O[C@@H]3O[C@H](C(=O)O)[C@@H](O)[C@H](O)[C@H]3O)ccc2c1 result_units=µM obs_value=468
molecule=O=C(O)[C@H]1O[C@@H](OC(=O)[C@H](c2ccccc2Cl)N2CCc3sccc3C2)[C@H](O)[C@@H](O)[C@@H]1O result_units=µM obs_value=24.8

(P) O=C(Cc1ccccc1Nc1c(Cl)cccc1Cl)O[C@@H]1O[C@H](C(=O)O)[C@@H](O)[C@H](O)[C@H]1O
(Q) COc1ccc2cc([C@H](C)C(=O)O[C@@H]3O[C@H](C(=O)O)[C@@H](O)[C@H](O)[C@H]3O)ccc2c1
Problem: Hey, which is lower on measured Ki, P or Q ? // respond with label for picked entry
Result: P

----------
# STUDY_SYSTEM: UniProt:P23141
# Sequence (P23141 whole entry): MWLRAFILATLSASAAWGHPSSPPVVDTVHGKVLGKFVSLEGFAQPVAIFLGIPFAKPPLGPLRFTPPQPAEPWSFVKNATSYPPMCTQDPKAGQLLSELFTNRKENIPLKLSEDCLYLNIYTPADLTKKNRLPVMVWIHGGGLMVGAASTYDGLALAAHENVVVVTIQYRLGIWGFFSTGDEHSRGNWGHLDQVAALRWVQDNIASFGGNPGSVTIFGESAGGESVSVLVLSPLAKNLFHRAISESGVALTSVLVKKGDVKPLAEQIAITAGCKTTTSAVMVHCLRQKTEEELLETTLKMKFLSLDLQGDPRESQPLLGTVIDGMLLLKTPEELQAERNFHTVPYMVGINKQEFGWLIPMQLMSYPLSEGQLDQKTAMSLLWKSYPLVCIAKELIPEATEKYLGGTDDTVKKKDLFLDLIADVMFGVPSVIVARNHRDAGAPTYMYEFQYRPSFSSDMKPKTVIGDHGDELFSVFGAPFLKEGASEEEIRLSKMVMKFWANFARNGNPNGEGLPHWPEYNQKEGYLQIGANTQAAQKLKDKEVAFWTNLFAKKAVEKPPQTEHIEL
# ASSAY_NOTES: Time-dependent inhibition of human CES1 assessed as hydrolysis of 4NPA to 4NP preincubated for 60 mins followed by 4NPA addition
ATTRIBUTE_MEASURED: pIC50
// returns pIC50 (minus log10 of molar concentration), number only

Problem: Param item = O=C(Cc1ccccc1Nc1c(Cl)cccc1Cl)O[C@@H]1O[C@H](C(=O)O)[C@@H](O)[C@H](O)[C@H]1O ; retrieve measured pIC50.
Result: 5.64

----------
# ASSAY_NOTES: Half life of the compound
# Format: physicochemical
ATTRIBUTE_MEASURED: half-life (h)
Note: unit h is implicit; provide only the numeric part.

Problem: Fill in: half-life of CCCC(CCC)C(=O)O[C@@H]1O[C@H](C(=O)O)[C@@H](O)[C@H](O)[C@H]1O is ___
Result: 60

----------
# STUDY_SYSTEM: Liver carboxylesterase 1 (Homo sapiens, UniProt P23141)
# ASSAY_NOTES: Time-dependent inhibition of human CES1 assessed as hydrolysis of 4NPA to 4NP preincubated for 30 mins followed by 4NPA addition
ATTRIBUTE_MEASURED: pIC50
Keep in mind that pIC50 stands for -log10 of concentration in molar terms.

Problem: Fill blank: measured pIC50 of the compound O=C(Cc1ccccc1Nc1c(Cl)cccc1Cl)O[C@@H]1O[C@H](C(=O)O)[C@@H](O)[C@H](O)[C@H]1O is ____.
Result: 5.71
